Experiment: Brain penetration after i.v. injection (LC-MS/MS)
Type: in vivo, Swiss CD1 mice
Conditions: Swiss CD1, mouse, brain, iv; mice, 7.5 mg/kg i.v., 2 h; read-out: Givinostat brain level
READOUT KIND: concentration at 2 h (ng/g)
Answer format: numeric, ng/g implied, no suffix.

Enquiry: Tell me the measured concentration at 2 h of "CCN(CC)Cc1ccc2cc(COC(=O)Nc3ccc(C(=O)NO)cc3)ccc2c1" , please.
Return: 30

###

Assay: Plasma pharmacokinetics after i.v. injection (LC-MS/MS)
Assay type: in vivo
Conditions: Swiss CD1, mouse, iv, mice, 7.5 mg/kg i.v., 2 h, read-out: Givinostat plasma level
READOUT KIND: concentration at 2 h (ng/mL)
Output spec: scalar in ng/mL, unitless text.

Enquiry: Given "CCN(CC)Cc1ccc2cc(COC(=O)Nc3ccc(C(=O)NO)cc3)ccc2c1" , state its recorded concentration at 2 h.
Return: 19
